Here, each record is paired with measured Max binding intensity (MFI) data.
- test target: T1, human CD123 on CHO cells (Homo sapiens, UniProt P26951)
- T1 construct: expressed in transfected cells; host or cells: CHO cells
- T1 sequence (P26951 19-378): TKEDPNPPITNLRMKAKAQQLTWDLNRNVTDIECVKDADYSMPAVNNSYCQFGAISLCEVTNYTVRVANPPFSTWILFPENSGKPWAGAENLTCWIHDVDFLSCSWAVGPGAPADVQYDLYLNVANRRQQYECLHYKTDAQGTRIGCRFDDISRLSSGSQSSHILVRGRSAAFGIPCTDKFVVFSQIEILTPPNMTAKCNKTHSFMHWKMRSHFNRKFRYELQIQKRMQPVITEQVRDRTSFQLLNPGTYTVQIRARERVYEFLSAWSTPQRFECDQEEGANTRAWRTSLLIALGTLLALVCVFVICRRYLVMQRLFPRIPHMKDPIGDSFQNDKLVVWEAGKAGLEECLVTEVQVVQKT
- procedure text: Flow cytometry binding of IgG antibodies to CD123 expressing CHO cells
- experimental context: flow cytometry, 4-parameter logistic model

[
  {
    "molecule": "32716 IgG: parental (mouse) anti-CD123 antibody 32716 VH/VL (SEQ ID NO: 74/75) cloned into human IgG format (antibody, V domains shown, human IgG constant regions) VH: QIQLVQSGPELKKPGETVKISCKASGYIFTNYGMNWVKQAPGKSFKWMGWINTYTGESTYSADFKGRFAFSLETSASTAYLHINDLKNEDTATYFCARSGGYDPMDYWGQGTSVTVSS VL: DIVLTQSPASLAVSLGQRATISCRASESVDNYGNTFMHWYQQKPGQPPKLLIYRASNLESGIPARFSGSGSRTDFTLTINPVEADDVATYYCQQSNEDPPTFGAGTKLELK",
    "Max binding intensity (MFI)": 910000
  },
  {
    "molecule": "h32716-6-2 IgG: humanized 32716 anti-CD123 IgG, VH SEQ ID NO: 82, VL SEQ ID NO: 83 (antibody, V domains shown) VH: QVQLVQSGPELKKPGASVKVSCKASGYIFTNYGMNWVKQAPGQGFKWMGWINTYTGESTYSADFKGRFVFSLDTSVSTAYLQISSLKAEDTAVYYCARSGGYDPMDYWGQGTLVTVSS VL: DIQMTQSPSSLSASVGDRVTITCRASESVDNYGNTFMHWYQQKPGKAPKLLIYRASNLESGVPSRFSGSGSGTDFTFTISSLQPEDIATYYCQQSNEDPPTFGQGTKVEIK",
    "Max binding intensity (MFI)": 1000000
  }
]

Data provenance: patent US20240076392A1
